Reference source: patent US20110294842A9

Assay Endpoint: melting point

// query melting point value for entry COc1ccc2c(n1)C1(CO2)C(=O)N(Cc2ccc(C(F)(F)F)o2)c2ccccc21 (stereo not drawn) [Synthetic Example 5]
// result 145 to 147 °C

// query melting point value for entry COc1ccc2c(n1)C1(CO2)C(=O)N(Cc2csc(C(C)C)n2)c2ccccc21 (stereo not drawn)
// result 136 to 138 °C

Others:
// query melting point value for entry COc1ccc2c(n1)C1(CO2)C(=O)Nc2cccc(Br)c21 (stereo not drawn) [Synthetic Example 12]
// result 265 to 268 °C
